In this section, each of the compounds is paired with its reported pIC50.
TARGET ENTITY: UniProt Q72874
ASSAY OVERVIEW: In vitro inhibition of HIV-Protease, using a peptide hydrolysis assay
Give only the number. pIC50 is defined as minus log10 of concentration in molar units.

Study these solved cases before continuing.
CC(C)(C)OC(=O)NC(CC(N)=O)C(=O)N[C@@H](Cc1ccccc1)C(O)CN[C@@H](Cc1ccccc1)C(=O)NC1c2ccccc2C[C@H]1O (some centres not stated) | 6.53
N[C@@H](Cc1ccccc1)C(O)CN[C@@H](Cc1ccccc1)C(=O)NC1c2ccccc2C[C@H]1O (some centres not stated) | 4.20
NC(=O)CC(N)C(=O)N[C@@H](Cc1ccccc1)[C@H](O)CN[C@@H](Cc1ccccc1)C(=O)NC1c2ccccc2C[C@H]1O (some centres not stated) | 5.96

// next entry
The compound listed as NC(=O)CC(NC(=O)c1ccc2ccccc2n1)C(=O)N[C@@H](Cc1ccccc1)[C@H](O)CN[C@@H](Cc1ccccc1)C(=O)NC1c2ccccc2C[C@H]1O (some centres not stated) shows pIC50 equal to 8.27
